- System: HaCaT cells
- ASSAY EXPLANATION: Glucose uptake (2-NBDG) in HaCaT keratinocytes
- Type: cell-based
- CONDITION DESCRIPTION: 25 μM, +2NBDG 50 μM, 24 h
Listed compounds paired with reported Measure 3 (fluorescence)

COMPOUND	Measure 3 (fluorescence)
CC1O[C@@H](Oc2cc(O)cc3oc(-c4ccccc4)cc(=O)c23)C(O)C(O)[C@H]1O (stereo partly drawn) [CR2, Chrysin-5-O-α-L-rhamnoside]	390512
COc1ccc(-c2coc3cc(O)cc(O[C@@H]4O[C@@H](C)[C@H](O)[C@@H](O)[C@H]4O)c3c2=O)cc1 [BR2, Biochanin A 5-O-α-L-rhamnoside]	935073
COc1ccc(-c2coc3cc(O[C@@H]4O[C@@H](C)[C@H](O)[C@@H](O)[C@H]4O)cc(O[C@@H]4O[C@@H](C)[C@H](O)[C@@H](O)[C@H]4O)c3c2=O)cc1 [BR1, Biochanin A-5,7-di-O-α-L-rhamnoside]	400131
CC1O[C@@H](Oc2cc(O[C@@H]3OC(C)[C@H](O)C(O)C3O)c3c(=O)cc(-c4ccccc4)oc3c2)C(O)C(O)[C@H]1O (stereo partly drawn) [CR1, Chrysin-di-5,7-O-α-L-rhamnoside]	628963
C[C@@H]1O[C@@H](Oc2cc(O)cc3c2C(=O)CC(c2ccc(O)cc2)O3)[C@H](O)[C@H](O)[C@H]1O (mixture of isomers) [NR1, Naringenin-5-O-α-L-rhamnoside]	649291

* * *

- Test system: STAT3
- ASSAY EXPLANATION: STAT3 activity in HeLa-STAT3-luc cells stimulated with IFN-γ (luciferase)
- Format: cell-based
- CONDITION DESCRIPTION: 50 μM, +IFNγ 25 U/ml
Label Satisfied when RLU 1 is at or above 20000 RLU; anything below gets Not satisfied.

MOLECULE	ASSAYED TARGET	GROUP LABEL
COc1cc(C2Oc3cc([C@H]4Oc5cc(O)cc(O)c5C(=O)[C@@H]4O)ccc3OC2CO)ccc1O (stereo partly drawn)	STAT3	Not satisfied
C[C@@H]1O[C@@H](Oc2cc(O)cc3c2C(=O)CC(c2ccc(O)cc2)O3)[C@H](O)[C@H](O)[C@H]1O (mixture of isomers) [NR1, Naringenin-5-O-α-L-rhamnoside]	STAT3	Not satisfied
COc1ccc(-c2cc(=O)c3c(O)cc(O)cc3o2)cc1O	STAT3	Not satisfied
O=c1cc(-c2ccccc2)oc2cc(O)cc(O)c12	STAT3	Satisfied
COc1ccc(-c2coc3cc(O)cc(O[C@@H]4O[C@@H](C)[C@H](O)[C@@H](O)[C@H]4O)c3c2=O)cc1 [BR2, Biochanin A 5-O-α-L-rhamnoside]	STAT3	Not satisfied
COc1ccc(-c2coc3cc(O[C@@H]4O[C@@H](C)[C@H](O)[C@@H](O)[C@H]4O)cc(O[C@@H]4O[C@@H](C)[C@H](O)[C@@H](O)[C@H]4O)c3c2=O)cc1 [BR1, Biochanin A-5,7-di-O-α-L-rhamnoside]	STAT3	Not satisfied

* * *

- Tested on: NF-κB
- ASSAY EXPLANATION: NF-κB activity in NIH3T3-KBF-Luc cells stimulated with TNFα (luciferase)
- Format: cell-based
- CONDITION DESCRIPTION: 10 μM, +30 ng/ml TNFα
Listed compounds paired with reported RLU specific

COMPOUND	UNIT TAG	RLU specific
O=c1cc(-c2ccccc2)oc2cc(O)cc(O)c12	RLU	256010
COc1ccc(-c2cc(=O)c3c(O)cc(O)cc3o2)cc1O	RLU	384300
CC1O[C@@H](Oc2cc(O[C@@H]3OC(C)[C@H](O)C(O)C3O)c3c(=O)cc(-c4ccccc4)oc3c2)C(O)C(O)[C@H]1O (stereo partly drawn) [CR1, Chrysin-di-5,7-O-α-L-rhamnoside]	RLU	143263
CC1O[C@@H](Oc2cc(O)cc3oc(-c4ccccc4)cc(=O)c23)C(O)C(O)[C@H]1O (stereo partly drawn) [CR2, Chrysin-5-O-α-L-rhamnoside]	RLU	132573
